Taken from ChEMBL document CHEMBL5131375.

method: in vitro
cond: human, Huh-7.5.1 cells
Each entry below carries its reported CC50.

Example cases with answers are listed next.
1. COc1ccc(CC(N)c2csc(Nc3ncccn3)n2)cc1 (stereo not drawn): > 100 µM
2. COc1cc(-c2cnc3c(N4CCOCC4)snc3c2)cc(OC)c1OC: 23.2 µM

Next compound, CC50 to be filled in.
Answer with reported CC50 of COc1ccc(-c2cnc3[nH]cc(C#Cc4cccnc4)c3c2)cc1OC
17 µM

###

method: Cytotoxicity against human HepG2 cells
Assay type: toxicity, cell-based
quantity kind: CC50

Answer with reported CC50 of Fc1ccc(N2CCCCC2)c(NC(=S)c2ccncc2)c1
> 50 µM

###

method: Cytotoxicity against HEK293 cells
Assay type: toxicity, cell-based
cond: human
quantity kind: CC50

Answer with reported CC50 of O=S(=O)(NCCNC/C=C/c1ccc(Br)cc1)c1cccc2cnccc12
> 1 µM

###

Each entry below carries its reported CC50.
method: Cytotoxicity against human A549 cells
Format: toxicity, cell-based

Answer with reported CC50 of CNC(=O)c1cc(Oc2ccc(NC(=O)Nc3ccc(Cl)c(C(F)(F)F)c3)c(F)c2)ccn1
14.2 µM

###

system name: Cyclin-dependent kinase 7 (Homo sapiens)
Sequence (P50613 whole entry): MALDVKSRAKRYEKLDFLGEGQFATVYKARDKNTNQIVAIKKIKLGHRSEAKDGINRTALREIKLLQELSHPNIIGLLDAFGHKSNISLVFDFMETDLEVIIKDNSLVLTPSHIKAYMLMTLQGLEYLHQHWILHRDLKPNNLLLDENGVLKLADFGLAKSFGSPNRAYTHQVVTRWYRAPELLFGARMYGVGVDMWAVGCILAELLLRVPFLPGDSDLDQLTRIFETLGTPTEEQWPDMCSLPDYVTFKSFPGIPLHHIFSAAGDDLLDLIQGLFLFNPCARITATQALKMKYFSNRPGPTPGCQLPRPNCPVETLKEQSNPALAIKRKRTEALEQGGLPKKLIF
quantity kind: IC50

# lookup: Cyclin-dependent kinase 7 (Homo sapiens) IC50, key = CC(C)c1cnn2c(NCc3ccccc3-n3cccn3)nc(OC3CCCNC3)nc12 (stereo unspecified)
< 5 nM

###

System: Human betaherpesvirus 5
method: Antiviral activity against HCMV AD169 infected in HFF cells incubated for 96 hrs
Format: functional, organism-based
cond: Human betaherpesvirus 5, AD169, HFF
quantity kind: EC50 (nM)
Just the number please, in nM, no unit attached.

Answer with reported EC50 of COc1cc[nH]c1/C=C1\C(=O)Nc2ccc([N+](=O)[O-])c(N3CC[C@@H](O)C3)c21
10

###

method: in vitro
cond: human, jurkat
quantity kind: CC50

Answer with reported CC50 of O=C1Cc2c([nH]c3ccc([N+](=O)[O-])cc23)-c2ccccc2N1 [ALSTERPAULLONE]
> 1000 nM

###

system name: Receptor tyrosine-protein kinase erbB-2 (Homo sapiens)
Sequence (P04626 whole entry): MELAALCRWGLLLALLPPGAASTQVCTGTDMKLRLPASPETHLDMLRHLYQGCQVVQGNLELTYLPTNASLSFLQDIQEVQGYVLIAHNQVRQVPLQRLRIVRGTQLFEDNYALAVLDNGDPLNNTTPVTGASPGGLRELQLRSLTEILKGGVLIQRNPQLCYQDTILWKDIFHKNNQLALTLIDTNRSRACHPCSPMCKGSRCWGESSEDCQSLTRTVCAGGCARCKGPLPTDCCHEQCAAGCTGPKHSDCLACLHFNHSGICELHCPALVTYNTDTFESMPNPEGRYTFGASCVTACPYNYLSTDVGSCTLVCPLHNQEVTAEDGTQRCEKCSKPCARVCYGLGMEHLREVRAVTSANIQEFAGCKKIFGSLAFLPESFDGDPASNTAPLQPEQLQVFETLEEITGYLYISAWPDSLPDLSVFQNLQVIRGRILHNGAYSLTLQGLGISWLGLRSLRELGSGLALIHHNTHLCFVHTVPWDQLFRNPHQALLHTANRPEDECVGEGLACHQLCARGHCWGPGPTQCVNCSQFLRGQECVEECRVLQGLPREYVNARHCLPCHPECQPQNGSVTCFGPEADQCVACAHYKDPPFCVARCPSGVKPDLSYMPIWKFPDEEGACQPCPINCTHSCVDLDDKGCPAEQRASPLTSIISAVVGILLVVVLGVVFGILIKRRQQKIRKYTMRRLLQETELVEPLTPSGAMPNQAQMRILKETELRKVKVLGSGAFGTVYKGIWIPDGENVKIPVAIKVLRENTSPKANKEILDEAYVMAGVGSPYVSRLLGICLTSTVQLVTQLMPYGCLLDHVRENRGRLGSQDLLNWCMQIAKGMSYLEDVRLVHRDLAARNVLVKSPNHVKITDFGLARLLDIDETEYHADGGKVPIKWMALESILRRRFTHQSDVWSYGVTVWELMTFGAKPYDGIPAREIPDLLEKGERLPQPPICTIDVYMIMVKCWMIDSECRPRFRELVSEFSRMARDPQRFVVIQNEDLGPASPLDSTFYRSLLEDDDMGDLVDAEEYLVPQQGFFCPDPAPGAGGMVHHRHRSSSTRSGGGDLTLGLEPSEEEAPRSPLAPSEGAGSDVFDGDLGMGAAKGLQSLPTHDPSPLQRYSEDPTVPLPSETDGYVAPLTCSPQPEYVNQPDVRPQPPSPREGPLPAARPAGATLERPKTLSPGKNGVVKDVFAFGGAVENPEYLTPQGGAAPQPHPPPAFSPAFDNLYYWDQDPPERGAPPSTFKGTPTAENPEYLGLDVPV
quantity kind: pIC50
pIC50 is a log-scale quantity: -log10 of the concentration expressed in molar.

# lookup: Receptor tyrosine-protein kinase erbB-2 (Homo sapiens) pIC50, key = CCN(CC)CC1CCN(c2ncc3ncnc(Nc4ccc(F)c(Cl)c4)c3n2)CC1
6.54

###

method: Cytotoxicity against 24ST1NLESG cells (unknown origin)
Format: toxicity, cell-based
quantity kind: CC50 (nM)
Just the number please, in nM, no unit attached.

Answer with reported CC50 of O=C1NCCc2[nH]c(-c3ccncc3)cc21
1000

###

Each entry below carries its reported CC50.
method: Cytotoxicity against HFL1 cells
Format: toxicity, cell-based
cond: human
Just the number please, in µM, no unit attached.

Example cases with answers are listed next.
1) Cc1c(NC(=O)c2cccc(NC(=O)C(C)NC(=O)c3ccco3)c2)c(=O)n(-c2ccccc2)n1C (stereo not drawn): 2040
2) CC1Oc2ccc(NC(=O)[C@@H](Cc3c[nH]c4ccccc34)NC(=O)c3ccc(F)cc3)cc2NC1=O (stereo partly drawn): 1410

Answer with reported CC50 of Cc1cc(-c2cc(C(=O)Nc3nc(CN4CCCC(C)C4)cs3)c3c(C)noc3n2)c(C)o1 (stereo not drawn)
159

###

method: Volume of distribution at steady state in Han-Wistar rat plasma at 5 mg/kg, iv at […] LC-MS/MS analysis
Type: ADME, organism-based
cond: time 0.083 hrs, read-out: Vdss
quantity kind: Vd at […] (L/kg)
Just the number please, in L/kg, no unit attached.

Answer with reported Vd at […] of Cc1cn(-c2cc(NC(=O)c3ccc(C)c(Nc4nccc(-c5cccnc5)n4)c3)cc(C(F)(F)F)c2)cn1
0.55
